Parameter 'readout' = pKi; parameter 'system' = hMMP-8 (Homo sapiens, UniProt P22894).
Sequence (P22894 101-467): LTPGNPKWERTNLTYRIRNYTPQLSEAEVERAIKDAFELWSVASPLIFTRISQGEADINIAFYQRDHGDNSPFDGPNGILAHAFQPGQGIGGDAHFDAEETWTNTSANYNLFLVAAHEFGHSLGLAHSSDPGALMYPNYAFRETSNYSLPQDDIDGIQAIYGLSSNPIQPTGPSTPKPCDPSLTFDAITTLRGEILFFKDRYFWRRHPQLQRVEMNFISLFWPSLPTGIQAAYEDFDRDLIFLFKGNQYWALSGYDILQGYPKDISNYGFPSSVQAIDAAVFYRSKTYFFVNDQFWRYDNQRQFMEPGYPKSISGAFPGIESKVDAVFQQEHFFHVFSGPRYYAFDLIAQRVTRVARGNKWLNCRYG
Please treat pKi as minus the base-10 logarithm of the molar concentration.

Worked cases, answers included:
Molecule	pKi
CC[N+]1=C(/C=C/C=C/C=C2/N(CCCCCC(=O)NCCCOCCOCCOCCCNC(=O)[C@H](CCC(=O)O)NC(=O)[C@H](CCC(=O)O)NC(=O)[C@H](Cc3cc(-c4ccc(-c5cccc(Cl)c5)cc4)no3)CP(=O)(O)c3ccc(Br)cc3)c3ccc4c(S(=O)(=O)[O-])cc(S(=O)(=O)O)cc4c3C2(C)C)C(C)(C)c2c1ccc1c(S(=O)(=O)O)cc(S(=O)(=O)O)cc21	5.69
CC1(C)C(/C=C/C2=C(Oc3ccc(CCC(=O)NCCCOCCOCCOCCCNC(=O)[C@H](CCC(=O)[O-])NC(=O)[C@H](CCC(=O)O)NC(=O)[C@H](Cc4cc(-c5ccc(-c6cccc(Cl)c6)cc5)no4)CP(=O)(O)c4ccc(Br)cc4)cc3)C(=C/C=C3/N(CCC[N+](C)(C)C)c4ccc(S(=O)(=O)[O-])cc4C3(C)C)/CCC2)=[N+](CCC[N+](C)(C)C)c2ccc(S(=O)(=O)[O-])cc21	5.48
NC(=O)[C@H](CCC(=O)O)NC(=O)[C@H](CCC(=O)O)NC(=O)[C@H](Cc1cc(-c2ccc(-c3cccc(Cl)c3)cc2)no1)CP(=O)(O)c1ccc(Br)cc1 [RXP470.1, reference compound]	6.92

Consider the molecule shown here: CC[N+]1=C(/C=C/C=C2/N(CCCCCC(=O)NCCCOCCOCCOCCCNC(=O)[C@H](CCC(=O)O)NC(=O)[C@H](CCC(=O)O)NC(=O)[C@H](Cc3cc(-c4ccc(-c5cccc(Cl)c5)cc4)no3)CP(=O)(O)c3ccc(Br)cc3)c3ccc(S(=O)(=O)[O-])cc3C2(C)C)C(C)(C)c2cc(S(=O)(=O)O)ccc21 What is its recorded pKi? 5.84

Another molecule: CC1(C)C(=CC=C2CCCC(C=CC3=[N+](CCC[N+](C)(C)C)c4ccc(S(=O)(=O)[O-])cc4C3(C)C)=C2Oc2ccc(CCC(=O)NCCCOCCOCCOCCCNC(=O)C(CCC(=O)[O-])NC(=O)C(CCC(=O)O)NC(=O)C(Cc3cc(-c4cccc(Oc5ccccc5)c4)no3)CP(=O)(O)c3ccc(Br)cc3)cc2)N(CCC[N+](C)(C)C)c2ccc(S(=O)(=O)[O-])cc21 (centres unmarked) 5.12

====

# reported Ki; entries follow
- Measured target: ADAMTS-5 (Homo sapiens, UniProt Q9UNA0)
- Sequence (Q9UNA0 262-930): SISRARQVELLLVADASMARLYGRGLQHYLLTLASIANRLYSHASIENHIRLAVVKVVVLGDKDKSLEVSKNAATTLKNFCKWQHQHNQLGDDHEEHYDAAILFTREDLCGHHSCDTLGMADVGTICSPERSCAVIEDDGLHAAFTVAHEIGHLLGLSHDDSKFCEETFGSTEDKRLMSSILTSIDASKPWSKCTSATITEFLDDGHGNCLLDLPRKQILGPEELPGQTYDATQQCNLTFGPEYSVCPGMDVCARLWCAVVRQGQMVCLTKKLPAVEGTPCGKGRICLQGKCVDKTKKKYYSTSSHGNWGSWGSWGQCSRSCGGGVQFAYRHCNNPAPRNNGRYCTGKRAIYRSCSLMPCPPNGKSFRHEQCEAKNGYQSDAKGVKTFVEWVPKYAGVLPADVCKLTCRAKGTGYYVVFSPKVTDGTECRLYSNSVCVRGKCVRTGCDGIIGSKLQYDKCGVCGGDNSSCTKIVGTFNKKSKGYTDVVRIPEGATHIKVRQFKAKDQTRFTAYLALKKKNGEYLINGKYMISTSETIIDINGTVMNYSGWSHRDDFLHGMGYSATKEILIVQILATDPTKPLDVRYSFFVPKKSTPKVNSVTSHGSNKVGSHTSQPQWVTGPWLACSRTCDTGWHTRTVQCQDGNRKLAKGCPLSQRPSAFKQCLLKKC

Worked cases, answers included:
Compound	Ki
CC[N+]1=C(/C=C/C=C2/N(CCCCCC(=O)NCCCOCCOCCOCCCNC(=O)[C@H](CCC(=O)O)NC(=O)[C@H](CCC(=O)O)NC(=O)[C@H](Cc3cc(-c4ccc(-c5cccc(Cl)c5)cc4)no3)CP(=O)(O)c3ccc(Br)cc3)c3ccc(S(=O)(=O)[O-])cc3C2(C)C)C(C)(C)c2cc(S(=O)(=O)O)ccc21	> 10 µM
CC1(C)C(=CC=C2CCCC(C=CC3=[N+](CCC[N+](C)(C)C)c4ccc(S(=O)(=O)[O-])cc4C3(C)C)=C2Oc2ccc(CCC(=O)NCCCOCCOCCOCCCNC(=O)C(CCC(=O)[O-])NC(=O)C(CCC(=O)O)NC(=O)C(Cc3cc(-c4cccc(Oc5ccccc5)c4)no3)CP(=O)(O)c3ccc(Br)cc3)cc2)N(CCC[N+](C)(C)C)c2ccc(S(=O)(=O)[O-])cc21 (stereo not drawn)	> 10 µM

Proceed to the following item.
Consider the compound shown here: CC1(C)C(/C=C/C2=C(Oc3ccc(CCC(=O)NCCCOCCOCCOCCCNC(=O)[C@H](CCC(=O)[O-])NC(=O)[C@H](CCC(=O)O)NC(=O)[C@H](Cc4cc(-c5ccc(-c6cccc(Cl)c6)cc5)no4)CP(=O)(O)c4ccc(Br)cc4)cc3)C(=C/C=C3/N(CCC[N+](C)(C)C)c4ccc(S(=O)(=O)[O-])cc4C3(C)C)/CCC2)=[N+](CCC[N+](C)(C)C)c2ccc(S(=O)(=O)[O-])cc21 What is its recorded Ki? > 10 µM
